Where do these numbers come from? They come from patent US20230312743A1.

Target of assay: T1, soluble cynomolgus macaque PD-1 extracellular domain (cynomolgus macaque, UniProt B0LAJ3 25-170)
T1 construct: also called Cyno PD-1; cynomolgus PD-1
T1 sequence (B0LAJ3 entry or part of it limits assumed): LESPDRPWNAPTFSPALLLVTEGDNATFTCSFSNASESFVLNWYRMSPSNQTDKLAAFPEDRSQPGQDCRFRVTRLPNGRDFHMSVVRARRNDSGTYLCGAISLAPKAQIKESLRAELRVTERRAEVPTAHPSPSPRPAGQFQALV
Method notes: SPR (Biacore 8K), 37 C, antibody captured via anti-human IgG, soluble PD-1 ECD as analyte, single cycle kinetics
Readout kind: Kd (nM)

INSERT INTO results (binder, numeric_result) VALUES
  ('humCL19v11 (antibody, human IgG1, V domains shown, hu-VH3 + hu-VL3; human IgG1 kappa isotype) VH: QVQLVQSGSELKKPGASVKVSCKAFGYTFTTYPIEWMRQAPGQGLEWIGNFHPYNDDTKYNEGFTGRFVLSVDKSSTTVYLQISSLKAEDTAVYYCARENYGSHGGFVYWGQGTLVTVSS VL: ENVLTQSPATLSLSPGERATLSCRASSSVISSYLHWYQQKPGQAPRLLIYSTSNLASGIPARFSGSGSGTDYTLTISSLEPEDFAVYYCQQYNSYPLTFGGGTKLEIK', 249),
  ('Parental (Clone 19 VH and VL) (antibody, V domains shown, The antibodies were captured through anti-human IgG and the variants were made on human IgG1 kappa, so it is probably a chimeric human IgG1 kappa) VH: QVQLQQSGAELVKPGASVKMSCKAFGYTFTTYPIEWMKQNHGKSLEWIGNFHPYNDDTKYNEKFKGKAKLTVEKSSTTVYLELSRLTSDDSAVYYCARENYGSHGGFVYWGQGTLVTVSG VL: ENVLTQSPAIMSASPGEKVTMTCRASSSVISSYLHWYQQKSGASPKLWIYSTSNLASGVPDRFSGSGSGTSYSLTISSVEAEDAATYYCQQYNSYPLTFGAGTKLEIK', 318);
